All figures here come from patent US10526323B2.

- Tested on: UniProt Q14833
- Assay procedure: mGluR4 potentiation assay: increase in response to an EC20 concentration of agonist (species not given)
- Test parameters: EC50 for potentiation of mGluR4; table does not state human or rat
Metric name: EC50 (nM)

Solved entries (count: 2):
{"Molecule": "Cn1nc(S(C)(=O)=O)c2ccc(Nc3n[nH]c4nccnc34)cc21 [Example 187]", "Tested on": "UniProt Q14833", "Metric name": "EC50", "Unit label": "nM", "Numeric value": 2360}
{"Molecule": "CC(C)CC1CC(=O)N(c2nn(C)c3cc(Nc4n[nH]c5cccnc45)ccc23)C1 (stereo not drawn) [Example 36]", "Tested on": "UniProt Q14833", "Metric name": "EC50", "Unit label": "nM", "Numeric value": 526}

P: Cn1nc(S(C)(=O)=O)c2ccc(Nc3n[nH]c4cccnc34)cc21 [Example 186]
Q: Cn1nc(OC2CCS(=O)(=O)CC2)c2ccc(Nc3n[nH]c4cccnc34)cc21 [Example 192]
R: COc1cc(Nc2n[nH]c3cccnc23)cc2c1cnn2C [Example 52]
S: CC1=NOC(Cn2nc(C)c3cc(Nc4n[nH]c5cccnc45)ccc32)C1 (stereo not drawn) [Example 121]
Data request: Rank descending by EC50. Write out the labels following the order that was asked for.
Data returned: P, R, S, Q
(P: 1880 nM, R: 718 nM, S: 377 nM, Q: 185 nM)
